Target: DNA dC->dU-editing enzyme APOBEC-3A (Homo sapiens, UniProt P31941)
Sequence (P31941 whole entry): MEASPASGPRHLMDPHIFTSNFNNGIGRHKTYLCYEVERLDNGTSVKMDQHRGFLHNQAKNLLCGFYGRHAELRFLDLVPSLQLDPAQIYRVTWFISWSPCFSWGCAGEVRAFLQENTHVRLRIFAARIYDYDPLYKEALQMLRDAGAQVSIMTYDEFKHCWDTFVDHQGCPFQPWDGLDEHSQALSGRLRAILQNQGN
Experiment: Dose Response confirmation of small molecule APOBEC3A DNA Deaminase Inhibitors via a fluorescence-based single-stranded DNA deaminase assay. [Related pubchem assays (depositor defined):AID493011, AID493024]
Assay type: functional
Calls of active or inactive are those of the source. The rule behind the calls is not given here.
Property Measured: IC50

Example entries begin here.
Cpd Smiles: CCN1C(=NCC2CC2)N[C@@H](c2ccccc2)C(C(=O)OC)=C1C
Recorded Value: 3.37 µM (active)
//
Cpd Smiles: COC(=O)C1=C(C)N(CC2CC2)C(NCc2cc(OC)c(OC)c(OC)c2)=N[C@H]1c1ccccc1
Recorded Value: 8.83 µM (active)

Give one value of IC50 per listed compound.
1. NC(=O)C[N+]1(CC#CC(O)(c2ccccc2)c2ccccc2)CCCC1
2. COCc1cc(C)nc(Sc2nc3c(c(=O)n(C)c(=O)n3C)n2C)c1C#N
3. COC(=O)c1ccc2ccn(CC(=O)NC(C)C)c2c1
4. CCN1CCN(c2ccc(NC(=O)c3cc4ccccc4cc3OC)cc2C)CC1

1: 2.74 µM (active); 2: 7.99 µM (active); 3: 3.92 µM (active); 4: 4.24 µM (active)
